tested on: CAKI-1 renal; assay: NCI tumour cell line growth inhibition, 48 h
REPORTED PROPERTY: TGI

Consider the reported TGI for these compounds:
COMPOUND	STUDY SYSTEM	MEAS VALUE
O=C(NNS(=O)(=O)c1cc(C(F)(F)F)cc(C(F)(F)F)c1)c1cnn(-c2ccc(Cl)cc2)c1C(F)(F)F	CAKI-1 renal	57.2 µM
CN(Cc1cnc2nc(N)nc(N)c2n1)c1ccc(C(=O)NC(CCC(=O)O)C(=O)O)cc1 (stereo unspecified)	CAKI-1 renal	> 100 µM
CC(C)(C)/C(O)=C\c1nc2cc(C(F)(F)F)ccc2[nH]c1=O	CAKI-1 renal	> 100 µM
O=[N+]([O-])C1(C2([N+](=O)[O-])CCCC2)CCCC1	CAKI-1 renal	> 100 µM

Please tell me: TGI of `Cc1ccc(S(=O)(=O)N/N=C2\C=C[C@]3(CC2)C(=O)N(C)c2ccccc23)cc1` , system CAKI-1 renal?
> 100 µM

----------
tested on: NCI-H23 lung; assay: NCI tumour cell line growth inhibition, 48 h
REPORTED PROPERTY: TGI

MOLECULE	REPORTED PROPERTY	MEAS VALUE
C=C(Cl)C(Cl)(CBr)CCC(Cl)C(C)(C)Cl (stereo unspecified)	TGI	34.3 µM
CCCc1c2c3ccccc3nc-2nc2ccccn12	TGI	88.6 µM

Request: TGI, test system NCI-H23 lung, entry `NC(=O)N(O)c1cccc(Br)c1`
> 100 µM

Moving on to the next molecule: C=C1C(=O)OC2/C=C(\C)C(O)/C=C\C(C)(O)CC(OC(=O)/C(C)=C/C)C12 (stereo unspecified)
> 100 µM

# repeat for C[C@@H]1CCC2[C@@H](C)C(=O)O[C@@H]3C4C[C@@H]1[C@@]23OO[C@@]4(C)O (stereo partly specified)
> 100 µM

Next molecule up: `O=C1c2cc(CCl)sc2C(=O)c2ccsc21`
0.136 µM

// same read-out, input: `CSc1c(C#N)c2n(c3ccccc3[n+]2C)c2ncccc12`
51.6 µM

----------
Overview of reported GI50 across a group of compounds:
system: TK-10 renal; assay: NCI tumour cell line growth inhibition, 48 h

Below, each entry is followed by its recorded GI50 result.
COMPOUND	GI50
COc1cc(C2C(C#N)=C(N)OC3=C2C(=O)c2ccccc2C3=O)cc(OC)c1OC (stereo not given)	10 µM
COc1ccc2c(c1)OC13Oc4cc(OC)ccc4C=C1CCCC3=C2	> 100 µM
NC(CSC(c1ccccc1)(c1ccccc1)c1ccc2ccccc2c1)C(=O)O (stereo not given)	0.524 µM
C#Cc1ccc(NC(=O)c2ccc(/C=C/C(=O)c3nccn3C)cc2)cc1	0.905 µM
COc1ccc(/C=C\c2cc(OC)c(OC)c(OC)c2)c(NS(=O)(=O)c2ccc(C)cc2)c1O	3.8 µM

What reported GI50 corresponds to `CC/C=C\CCC/C=C1/C(=O)C=C[C@@H]1C/C=C\CCCC(=O)O` on TK-10 renal?
5.04 µM

Ok, now `CC(C)(C)CC(C)(C)c1ccc(OCCOCCSC(=N)N)cc1`
2.47 µM

Then what about the compound CN(Cc1cnc2nc(N)nc(N)c2n1)c1ccc(C(=O)NC(CCC(=O)O)C(=O)O)cc1 (stereo not given) ?
> 100 µM

Item: `O=C(CCN1CCCC1)Nc1ccc2c(NCCCc3ccccc3)c3ccccc3nc2c1`
1.66 µM

Do the same for `COc1ccc(NC(=O)c2cc(OC)c(OC)c(OC)c2)cc1O` please
> 100 µM

----------
tested on: M19-MEL melanoma; assay: NCI tumour cell line growth inhibition, 48 h
REPORTED PROPERTY: TGI

Consider the following illustrative entries.
COMPOUND	REPORTED PROPERTY	MEAS VALUE
CC[C@@H]1OC2(C)CC(S(=O)(=O)c3ccccc3)CC1O2 (some centres undefined)	TGI	> 100 µM
O=[N+]([O-])c1ccccc1C1N2CCCCC2[C@@H]2c3[nH]c4ccccc4c3CCN12 (some centres undefined)	TGI	18.5 µM
CC1(C)OCN(c2ccc(Cl)cc2)Cn2c1nc1ccccc12	TGI	> 100 µM

Look up TGI: `COc1cccc(C2C(C(=O)Nc3cc(=O)n(C)c(=O)n3C)=C(C)NC(C)=C2C(=O)Nc2cc(=O)n(C)c(=O)n2C)c1O`
> 100 µM

----------
Recorded measurements of TGI, one per entry
system: SW-620 colon; experiment: NCI tumour cell line growth inhibition, 48 h
Form entry: value (µM) — number only.

Worked cases, answers included:
COMPOUND	REPORTED PROPERTY	MEAS VALUE
O=C1c2cc(CCl)sc2C(=O)c2ccsc21	TGI	0.387
COC(=O)C1=C(C)NC(C)=C([N+](=O)[O-])C1c1cccc(NO)c1 (centres undefined)	TGI	16.5
Cc1ccc2[nH]c3c(C)c4ccncc4c(C)c3c2c1	TGI	1.7

Moving on to another compound below.
So what's the measured TGI for this one? CC(=O)c1cccc(NC2C(N)C(NC(=O)N(C)C)(C(C)O)C(C)(O)C2(O)COC(=O)c2c(C)cccc2O)c1 (centres undefined)
1.75

----------
system: SK-OV-3 ovarian; assay: NCI tumour cell line growth inhibition, 48 h
REPORTED PROPERTY: TGI

QUERY SMILES	TGI
O=C(/C=C\c1ccnc2ccccc12)c1ccc([N+](=O)[O-])cc1	> 100 µM
CC(=O)Nc1ccc(-c2nnc(SCC(=O)Nc3ccc(C)cc3)o2)cc1	> 100 µM
COCN1C(=O)[C@@H]2CCCN2C(=O)c2cc([N+](=O)[O-])ccc21	> 100 µM
C#Cc1ccc(NC(=O)c2ccc(/C=C/C(=O)c3nccn3C)cc2)cc1	24.3 µM
C=CCn1c(=O)c(C)cn(/C(=C/C(=O)OCC)C(=O)OCC)c1=O	> 100 µM
CN1CCN(c2ccc3[nH]c(C4=C(O)c5nc(CO)n(C)c5C(=O)C4=O)nc3n2)CC1	> 100 µM
O=c1c([Se]c2coc3ccccc3c2=O)coc2ccccc12	29.8 µM
CC(=O)N1CC(F)(F)c2c(Sc3ncc(N4CCC5(CC4)COC[C@H]5N)nc3N)cccc21	> 100 µM
O=[N+]([O-])C1(C2([N+](=O)[O-])CCCC2)CCCC1	> 100 µM

Would you mind telling me what TGI value was observed for `c1ccc(-c2nc(N3CCNCC3)c3nc(-c4ccccc4)oc3n2)cc1` ?
3.71 µM

----------
test system: UACC-62 melanoma; assay: NCI tumour cell line growth inhibition, 48 h; in the data active = GI50 below about 0.43 µM; inactive = the rest
// allowed return values: TRUE for active, FALSE for inactive

Use these answered entries as a reference point.
COMPOUND	STUDY SYSTEM	QUALITATIVE LABEL
O=C(CCN1CCCC1)Nc1ccc2c(NCCCc3ccccc3)c3ccccc3nc2c1	UACC-62 melanoma	FALSE
CCNCCNc1cc(-c2ccc(F)cc2)c(C#N)c2nc3ccccc3n12	UACC-62 melanoma	FALSE
O=C(NNS(=O)(=O)c1cc(C(F)(F)F)cc(C(F)(F)F)c1)c1cnn(-c2ccc(Cl)cc2)c1C(F)(F)F	UACC-62 melanoma	FALSE
C=C(C)[C@H]1CC/C(C)=C/CCC(C)C(=O)CC/C(CO)=C\[C@@H]1O (some centres undefined)	UACC-62 melanoma	FALSE
COc1ccccc1-n1c(SCc2cc(OC)c(OC)c(OC)c2)nc2ccc(Cl)cc2c1=O	UACC-62 melanoma	FALSE
COc1ccc(/C=C\c2cc(OC)c(OC)c(OC)c2)c(NS(=O)(=O)c2ccc(C)cc2)c1O	UACC-62 melanoma	TRUE
COC(=O)CCC1=C(C)c2cc3[n-]c(cc4nc(cc5[n-]c(cc1n2)c(CCC(=O)OC)c5C)C=C4C)cc3C.[Cd+2]	UACC-62 melanoma	FALSE
CCCC[C@@H](COC(=O)N(Cc1cccs1)Cc1cccs1)NC(=O)N[C@@H](CC(=O)OC)c1ccc2c(c1)OCO2	UACC-62 melanoma	FALSE

We now examine a further compound.
Per the records of this test, what outcome belongs to `COc1ccc2c3c(c(OCCCN(C)C)nc2c1)-c1ccc(Cl)cc1C3=O` ?
FALSE

----------
// GI50 lookup, one value per entry
system: RXF 393 renal; assay: NCI tumour cell line growth inhibition, 48 h

COMPOUND	GI50
C[Se]C(=O)CC1=C2C=C(F)C=CC2/C(=C\c2ccc(S(C)=O)cc2)C1C (stereo not drawn)	0.0289 µM
CCNCCNc1cc(-c2ccc(F)cc2)c(C#N)c2nc3ccccc3n12	1.71 µM
CC(C)(C)CC(C)(C)c1ccc(OCCOCCSC(=N)N)cc1	1.78 µM
C=C(C)C1/C=C(/C(C)C)CC[C@]2(C)O[C@@H]2CC[C@H](C)CC1=O (stereo partly drawn)	32 µM
CC#CC(=O)N1CCC[C@H]1c1nc(-c2ccc(C(=O)Nc3ccccn3)cc2)c2c(N)nccn12	61.7 µM

Report GI50 for `COc1ccc(/C=C(\C#N)c2cc3ccccc3n2C)cc1` please.
0.244 µM

Queued: `O=Nc1c(O)ccc2ccccc12`
6.54 µM

Please give the result for `FC(F)(F)c1ccc(-c2cnc(Br)nc2NC2CCCCCC2)cc1` too.
24.9 µM
